test system: Staphylococcus aureus; assay: Antibacterial activity against Staphylococcus aureus NCTC-10649M was determined; format: functional
Property: MIC (mg/L)
# value in mg/L; strip the unit string

Data point: `Cc1c(N2C[C@@H](CF)[C@H](N)C2)c(F)cn2c(=O)c(C(=O)O)cc(C3CC3)c12` ; MIC = 0.02

Data point: Cc1c(N2C[C@@H](CF)[C@H](N)C2)c(F)cn2c(=O)c(C(=O)O)cc(C3CC3)c12 (racemic) ; MIC = 0.2

Data point: Cc1c(N2C[C@@H](N)[C@H](F)C2)c(F)cn2c(=O)c(C(=O)O)cc(C3CC3)c12 (stereo in doubt; 3a) ; MIC = 0.02

Data point: Cc1c(N2C[C@@H](N)[C@H](F)C2)c(F)cn2c(=O)c(C(=O)O)cc(C3CC3)c12 (stereo in doubt; 3a-R,R7) ; MIC = 0.05
